- targetOfAssay: wild-type human cardiac sodium channel, hNav1.5 (Homo sapiens, UniProt Q14524)
- Sequence (Q14524 whole entry): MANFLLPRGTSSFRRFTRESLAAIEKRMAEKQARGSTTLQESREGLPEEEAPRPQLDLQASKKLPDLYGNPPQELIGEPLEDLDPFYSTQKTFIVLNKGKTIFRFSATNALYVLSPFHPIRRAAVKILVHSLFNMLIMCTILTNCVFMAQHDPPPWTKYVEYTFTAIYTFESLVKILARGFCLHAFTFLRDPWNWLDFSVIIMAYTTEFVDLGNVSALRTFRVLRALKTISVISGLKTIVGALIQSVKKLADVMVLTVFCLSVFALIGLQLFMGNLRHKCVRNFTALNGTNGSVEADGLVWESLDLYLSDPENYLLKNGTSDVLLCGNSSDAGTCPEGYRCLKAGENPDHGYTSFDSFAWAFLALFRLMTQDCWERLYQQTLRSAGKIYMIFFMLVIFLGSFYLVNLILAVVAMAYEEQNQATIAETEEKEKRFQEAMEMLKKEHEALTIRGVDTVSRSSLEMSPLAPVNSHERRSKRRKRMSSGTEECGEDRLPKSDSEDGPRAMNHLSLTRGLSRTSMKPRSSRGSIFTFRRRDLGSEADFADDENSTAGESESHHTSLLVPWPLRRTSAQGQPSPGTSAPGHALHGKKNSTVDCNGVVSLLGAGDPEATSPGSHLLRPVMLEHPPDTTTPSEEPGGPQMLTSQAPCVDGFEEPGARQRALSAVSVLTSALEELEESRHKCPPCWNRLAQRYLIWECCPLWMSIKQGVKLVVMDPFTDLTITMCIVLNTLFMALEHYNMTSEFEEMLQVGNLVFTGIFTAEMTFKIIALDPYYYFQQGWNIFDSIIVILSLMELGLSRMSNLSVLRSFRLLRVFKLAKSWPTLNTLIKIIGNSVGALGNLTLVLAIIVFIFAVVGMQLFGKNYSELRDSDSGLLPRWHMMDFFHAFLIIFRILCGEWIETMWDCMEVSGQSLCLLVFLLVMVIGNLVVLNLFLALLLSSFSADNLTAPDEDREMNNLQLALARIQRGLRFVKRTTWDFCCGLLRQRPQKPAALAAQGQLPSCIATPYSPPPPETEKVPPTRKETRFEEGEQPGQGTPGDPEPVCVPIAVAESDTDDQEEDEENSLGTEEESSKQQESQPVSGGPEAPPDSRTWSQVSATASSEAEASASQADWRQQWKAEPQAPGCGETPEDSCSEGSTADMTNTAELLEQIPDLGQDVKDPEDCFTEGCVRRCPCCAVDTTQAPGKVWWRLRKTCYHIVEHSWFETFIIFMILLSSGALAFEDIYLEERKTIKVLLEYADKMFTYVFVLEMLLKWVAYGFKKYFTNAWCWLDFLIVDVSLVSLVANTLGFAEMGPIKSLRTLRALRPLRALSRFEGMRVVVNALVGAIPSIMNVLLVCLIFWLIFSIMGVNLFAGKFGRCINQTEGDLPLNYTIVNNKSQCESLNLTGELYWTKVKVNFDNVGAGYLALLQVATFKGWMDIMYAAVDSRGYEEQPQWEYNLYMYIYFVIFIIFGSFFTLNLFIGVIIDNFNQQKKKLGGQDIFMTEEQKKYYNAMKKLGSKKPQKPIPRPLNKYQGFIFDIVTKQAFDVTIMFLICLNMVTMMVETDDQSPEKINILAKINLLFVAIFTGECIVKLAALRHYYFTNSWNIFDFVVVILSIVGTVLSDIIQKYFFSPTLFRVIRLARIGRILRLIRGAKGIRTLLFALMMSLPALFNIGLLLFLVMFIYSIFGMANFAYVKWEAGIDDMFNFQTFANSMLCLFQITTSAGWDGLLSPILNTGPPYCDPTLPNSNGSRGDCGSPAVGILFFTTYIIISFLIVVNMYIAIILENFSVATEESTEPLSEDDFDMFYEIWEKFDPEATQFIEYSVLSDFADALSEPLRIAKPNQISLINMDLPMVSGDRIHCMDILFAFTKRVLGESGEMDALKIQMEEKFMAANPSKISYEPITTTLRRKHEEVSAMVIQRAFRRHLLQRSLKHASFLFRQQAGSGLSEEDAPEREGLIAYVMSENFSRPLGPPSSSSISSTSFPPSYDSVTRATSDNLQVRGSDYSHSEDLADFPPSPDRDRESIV
- experimentNotes: Late INa screening assay (late sodium current, PatchXpress whole cell patch clamp)
- Format: cell-based
- conditionNotes: compound at 10 μM; read-out: Late INa % blk
Each entry below carries its recorded inhibition at 10 µM.
resultType: inhibition at 10 µM (%)

[[record]]
molecule = "CCOC(=O)C1=C(C)Nc2nnnn2C1c1ccc(OC)c2ccccc12 (stereo not drawn)"
resulttype = "inhibition at 10 µM"
recordednumber = 28.2

[[record]]
molecule = "CCOC(=O)C1=C(C)NC2=C(C(=O)CCC2)C1c1ccc2cc(OC)ccc2c1 (stereo not drawn)"
resulttype = "inhibition at 10 µM"
recordednumber = 25.3

[[record]]
molecule = "CC1=C(C(=O)OCc2ccccc2)C(c2cccc3ccccc23)n2nnnc2N1CC(=O)O (stereo not drawn)"
resulttype = "inhibition at 10 µM"
recordednumber = 7.4

[[record]]
molecule = "CCOC(=O)C1=C(C)Nc2nnnn2C1c1csc2ccccc12 (stereo not drawn)"
resulttype = "inhibition at 10 µM"
recordednumber = 45.9

[[record]]
molecule = "CCOC(=O)C1=C(C)Nc2nnnn2C1c1ccccc1-c1ccc(C#N)cc1 (stereo not drawn)"
resulttype = "inhibition at 10 µM"
recordednumber = 29.2

[[record]]
molecule = "CCOC(=O)C1=C(C)Nc2[nH]ncc2C1c1cccc(Oc2ccccc2)c1 (stereo not drawn)"
resulttype = "inhibition at 10 µM"
recordednumber = 26

[[record]]
molecule = "COC(=O)C1=C(C)Nc2nnnn2C1c1ccc(Br)s1 (stereo not drawn)"
resulttype = "inhibition at 10 µM"
recordednumber = 37.7

[[record]]
molecule = "CC1=C(C(=O)OCc2ccccc2)C(c2ccccc2B(O)O)n2nnnc2N1 (stereo not drawn)"
resulttype = "inhibition at 10 µM"
recordednumber = 20.6

[[record]]
molecule = "CC1=C(C(=O)N[C@@H](C)c2ccccc2)C(c2cccc3ccccc23)n2nnnc2N1 (stereo partly drawn)"
resulttype = "inhibition at 10 µM"
recordednumber = 16.3


----------
- targetOfAssay: wild-type human cardiac sodium channel, hNav1.5 (Homo sapiens, UniProt Q14524)
- experimentNotes: Late INa screening assay (late sodium current, PatchXpress whole cell patch clamp)
- Format: cell-based
- conditionNotes: compound at 10 μM; read-out: Late INa % blk
Would you please tag the item true when its inhibition at 10 µM is 20% or above, and false when it is below?

[[record]]
compound = "CC1=C(C(=O)OCc2ccccc2)C(c2ccccc2N2CCN(S(C)(=O)=O)CC2)n2nnnc2N1 (centres unmarked)"
assignedcategory = "true"

[[record]]
compound = "CCOC(=O)C1=C(C)NC2=C(C(=O)CCC2)C1c1ccnc2ccccc12 (centres unmarked)"
assignedcategory = "false"

[[record]]
compound = "CC1=C(C(=O)N2CCC(c3cccc(C(=O)O)c3)CC2)C(c2cccc3ccccc23)C2=C(CCCC2=O)N1 (centres unmarked)"
assignedcategory = "false"

[[record]]
compound = "COC(=O)c1ccc(OCCOC(=O)C2=C(C)Nc3nnnn3C2c2cccc3ccccc23)cc1 (centres unmarked)"
assignedcategory = "false"

[[record]]
compound = "CC1=C(C(=O)O[C@@H](C)c2ccccc2)C(c2cccc3ccccc23)n2nnnc2N1 (some centres unmarked)"
assignedcategory = "true"

[[record]]
compound = "CC1=C(C(=O)N2CCC(c3ccc(C(=O)O)cc3)CC2)C(c2cccc3ccccc23)C2=C(CCCC2=O)N1 (centres unmarked)"
assignedcategory = "true"

[[record]]
compound = "CC1=C(C(=O)N2CCCCC2)C(c2cccc3ccccc23)C2=C(CCCC2=O)N1 (centres unmarked)"
assignedcategory = "false"


----------
- targetOfAssay: wild-type human cardiac sodium channel, hNav1.5 (Homo sapiens, UniProt Q14524)
- experimentNotes: Late INa screening assay (late sodium current, PatchXpress whole cell patch clamp)
- Assay type: cell-based
- conditionNotes: compound at 10 μM; read-out: Late INa % blk
resultType: inhibition at 10 µM (%)

[[record]]
compound = "CCOC(=O)C1=C(C)Nc2[nH]ncc2C1c1c(Br)sc2ccccc12 (stereo not drawn)"
resulttype = "inhibition at 10 µM"
recordednumber = 77.4

[[record]]
compound = "CCOC(=O)C1=C(C(C)C)NC(C(C)C)=C(C(=O)OCC)C1c1ccc(Br)s1"
resulttype = "inhibition at 10 µM"
recordednumber = 54

[[record]]
compound = "CC1=C(C(=O)OCc2ccccc2)[C@@H](c2ccccc2-c2cccc(C#N)c2)n2nnnc2N1"
resulttype = "inhibition at 10 µM"
recordednumber = 94.8

[[record]]
compound = "CCOC(=O)C1=C(C)Nc2nnnn2C1c1ccccc1OCc1cccc(C(=O)O)c1 (stereo not drawn)"
resulttype = "inhibition at 10 µM"
recordednumber = 9.5

[[record]]
compound = "COC(=O)C1=C(C)Nc2nnnn2C1c1ccccc1I (stereo not drawn)"
resulttype = "inhibition at 10 µM"
recordednumber = 27.3

[[record]]
compound = "CC1=C(C(=O)OCc2ccc(-c3nnn[nH]3)cc2)C(c2cccc3ccccc23)n2nnnc2N1 (stereo not drawn)"
resulttype = "inhibition at 10 µM"
recordednumber = 5.6

[[record]]
compound = "CC1=C(C(=O)OCc2ccccc2)C(c2ccccc2-c2ccccc2)n2nnnc2N1 (stereo not drawn)"
resulttype = "inhibition at 10 µM"
recordednumber = 78.8

[[record]]
compound = "CC1=C(C(=O)OCc2ccccc2)C(c2sc3ccccc3c2C)n2nnnc2N1 (stereo not drawn)"
resulttype = "inhibition at 10 µM"
recordednumber = 70.7

[[record]]
compound = "CC1=C(C(=O)OCc2ccccc2)C(c2ccc(SC(F)(F)F)cc2)n2nnnc2N1 (stereo not drawn)"
resulttype = "inhibition at 10 µM"
recordednumber = 21.3


----------
- targetOfAssay: wild-type human cardiac sodium channel, hNav1.5 (Homo sapiens, UniProt Q14524)
- experimentNotes: Late INa screening assay (late sodium current, PatchXpress whole cell patch clamp)
- Type: cell-based
- conditionNotes: compound at 10 μM; read-out: Late INa % blk
resultType: inhibition at 10 µM (%)

[[record]]
molecule = "CCOC(=O)C1=C(C)Nc2nnnn2C1c1ccccc1N1CCC(C(=O)OCC)CC1 (centres unmarked) [PT-484]"
resulttype = "inhibition at 10 µM"
recordednumber = 36.1

[[record]]
molecule = "CCOC(=O)C1=C(C)Nc2nnnn2C1c1ccc(C2C(C(=O)OCC)=C(C)Nc3nnnn32)cc1 (centres unmarked) [PT-201]"
resulttype = "inhibition at 10 µM"
recordednumber = 7.8

[[record]]
molecule = "CCOC(=O)c1c(C)nc2[nH]ncc2c1-c1ccccc1-c1cccc(C(C)=O)c1 [PT-450]"
resulttype = "inhibition at 10 µM"
recordednumber = 7.3

[[record]]
molecule = "CC1=C(C(=O)OCc2ccccc2)C(c2ccc3ccccc3c2)C(C(=O)OCc2ccccc2)=C(C)N1 [PT-129]"
resulttype = "inhibition at 10 µM"
recordednumber = 17.6

[[record]]
molecule = "COC(=O)C1=C(C)Nc2nnnn2C1c1sc2ccccc2c1-c1cccc(C(=O)O)c1 (centres unmarked) [PT-273]"
resulttype = "inhibition at 10 µM"
recordednumber = 14.1

[[record]]
molecule = "CC1=C(C(=O)OCc2ccccc2)C(c2ccccc2OCc2ccccc2)n2nnnc2N1 (centres unmarked) [PT-383]"
resulttype = "inhibition at 10 µM"
recordednumber = 79.5

[[record]]
molecule = "CCOC(=O)C1=C(C)NC(C)=C(C(=O)OCC)C1c1ccc2ccccc2c1 [PT-107]"
resulttype = "inhibition at 10 µM"
recordednumber = 91.9

[[record]]
molecule = "CC1=C(C(=O)OC(C)C)C(c2c(Br)sc3ccccc23)n2nnnc2N1 (centres unmarked) [PT-506]"
resulttype = "inhibition at 10 µM"
recordednumber = 81.4


----------
Each entry below carries its recorded hERG Patch Clamp hERG % blk.
- targetOfAssay: hERG potassium channel (Homo sapiens)
- Sequence (Q12809 whole entry): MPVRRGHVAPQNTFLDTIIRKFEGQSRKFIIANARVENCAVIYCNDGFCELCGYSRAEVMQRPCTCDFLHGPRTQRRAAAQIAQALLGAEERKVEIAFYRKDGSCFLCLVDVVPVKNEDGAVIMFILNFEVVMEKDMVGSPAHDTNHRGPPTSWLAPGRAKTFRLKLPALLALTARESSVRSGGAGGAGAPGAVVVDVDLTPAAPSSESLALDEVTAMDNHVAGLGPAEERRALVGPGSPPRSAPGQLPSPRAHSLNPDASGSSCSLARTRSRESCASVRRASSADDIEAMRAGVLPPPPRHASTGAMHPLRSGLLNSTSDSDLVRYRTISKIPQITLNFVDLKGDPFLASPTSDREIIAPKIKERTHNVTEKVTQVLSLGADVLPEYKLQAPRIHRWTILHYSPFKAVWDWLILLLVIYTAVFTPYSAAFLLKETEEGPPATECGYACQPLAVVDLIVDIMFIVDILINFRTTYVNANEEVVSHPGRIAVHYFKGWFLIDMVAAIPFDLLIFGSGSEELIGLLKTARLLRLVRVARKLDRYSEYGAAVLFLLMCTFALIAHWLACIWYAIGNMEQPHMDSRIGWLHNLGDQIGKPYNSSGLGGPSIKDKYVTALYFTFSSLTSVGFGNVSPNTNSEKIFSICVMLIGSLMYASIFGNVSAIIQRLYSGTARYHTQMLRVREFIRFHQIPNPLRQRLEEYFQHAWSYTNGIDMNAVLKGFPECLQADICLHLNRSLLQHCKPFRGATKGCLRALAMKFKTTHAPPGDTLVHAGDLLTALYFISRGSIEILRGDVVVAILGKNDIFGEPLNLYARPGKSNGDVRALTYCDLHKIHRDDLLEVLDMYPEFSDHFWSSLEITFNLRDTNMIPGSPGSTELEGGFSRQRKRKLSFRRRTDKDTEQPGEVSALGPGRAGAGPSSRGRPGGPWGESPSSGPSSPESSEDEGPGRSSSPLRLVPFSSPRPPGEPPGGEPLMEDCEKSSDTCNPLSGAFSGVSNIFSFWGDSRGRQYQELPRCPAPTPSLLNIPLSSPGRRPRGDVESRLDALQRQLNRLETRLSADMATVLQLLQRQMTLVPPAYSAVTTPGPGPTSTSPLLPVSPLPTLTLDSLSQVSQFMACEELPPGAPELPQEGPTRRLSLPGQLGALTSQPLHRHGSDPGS
- experimentNotes: hERG screening assay (PatchXpress patch clamp, CHO cell line)
- conditionNotes: 10 μM
resultType: hERG Patch Clamp hERG % blk (%)

[[record]]
compound = "COc1ccc(C2C(C(=O)OCc3ccccc3)=C(C)Nc3nnnn32)c(C#N)c1 (stereo not drawn)"
recordednumber = 69.0

[[record]]
compound = "COc1cc(Cl)ccc1COC(=O)C1=C(C)Nc2nnnn2C1c1c(C)cccc1C (stereo not drawn)"
recordednumber = 62.5

[[record]]
compound = "CCOC(=O)C1=C(C)Nc2[nH]ncc2C1c1ccc(OC)cc1OCc1ccccc1 (stereo not drawn)"
recordednumber = 50.0

[[record]]
compound = "CC1=C(C(=O)OCc2ccccc2)C(c2c(Br)sc3ccccc23)n2nnnc2N1 (stereo not drawn)"
recordednumber = 16.5

[[record]]
compound = "CC1=C(C(=O)N2CCN(c3ccccc3)CC2)C(c2ccc3ccccc3c2)C2=C(CCCC2=O)N1 (stereo not drawn)"
recordednumber = 64.5

[[record]]
compound = "CCOC(=O)C1=C(C)NC(C)=C(C(=O)OCC)C1c1ccc2c(c1)OCCO2"
recordednumber = 34.2

[[record]]
compound = "CCOC(=O)C1=C(C)NC(C)=C(C(=O)OCC)C1c1csc2ccccc12"
recordednumber = 50.3

[[record]]
compound = "CCS(=O)(=O)N1CCN(c2cccc(OC)c2C2C(C(=O)OCc3ccccc3)=C(C)Nc3nnnn32)CC1 (stereo not drawn)"
recordednumber = 41.5

[[record]]
compound = "COc1cc(Cl)ccc1COC(=O)C1=C(C)NC2=C(C(=O)CCC2)C1c1c(Cl)cccc1Cl (stereo not drawn)"
recordednumber = 30.5

[[record]]
compound = "CCOC(=O)C1=C(CC)Nc2nnnn2C1c1cccc2ccccc12 (stereo not drawn)"
recordednumber = 30.0

[[record]]
compound = "CC1=C(C(=O)OC(c2ccccc2)C2CC2)C(c2cccc3ccccc23)n2nnnc2N1 (stereo not drawn)"
recordednumber = 28.0

[[record]]
compound = "CCOC(=O)C1=C(C)NC(C)=C(C(=O)OCC)C1c1cc2ccccc2s1"
recordednumber = 51.5

[[record]]
compound = "CC1=C(C(=O)OCc2ccccc2)C(c2ccc(N(C)C)cc2[N+](=O)[O-])n2nnnc2N1 (stereo not drawn)"
recordednumber = 78.5

[[record]]
compound = "CCOC(=O)C1=C(C)Nc2nnnn2C1c1ccccc1-c1cccc(-c2nnn[nH]2)c1 (stereo not drawn)"
recordednumber = 10.0

[[record]]
compound = "CC1=C(C(=O)OCc2ccc(Cn3cccn3)cc2)C(c2cccs2)n2nnnc2N1 (stereo not drawn)"
recordednumber = 48.0

[[record]]
compound = "CC(=O)c1ccc(-c2ccccc2C2C(C(=O)OCc3ccccc3)=C(C)Nc3nnnn32)cc1 (stereo not drawn)"
recordednumber = 38.5

[[record]]
compound = "CCOC(=O)C1=C(C(C)C)NC(C(C)C)=C(C(=O)OCC)C1c1ccc(Br)s1"
recordednumber = 10.0

[[record]]
compound = "N#CC1=C(N)OC2=C(C(=O)CC(c3ccccc3)C2)C1c1ccco1 (stereo not drawn)"
recordednumber = 46.0

